target: T1, human Claudin18.2 protein (P50251802, GenScript) (human, UniProt P56856-2 1-261, limits assumed); assay: SPR (Biacore T200), human Claudin18.2 amine-coupled to the chip, antibody 0-100 nM in the mobile phase, 1:1 model
T1 construct: also called human CLDN18.2
result-type: Kd (nM)
Answer format: numeric, nM implied, no suffix.

Examples with their reported Kd follow.
binder	Kd (nM)
Hz69H9 (antibody, human IgG1, kappa, V domains shown) VH: QVQLVQSGAEVKKPGSSVKVSCKASGYSFSSYNIHWVRQAPGQGLEWMGYIAPFQGDSRYNQKFKGRVTITADKSTSTAYMELSSLRSEDTAVYYCARLNRGNSLDYWGQGTLVTVSS VL: DIVMTQSPDSLAVSLGERATINCKSSQSLFNSGNQRNYLTWYQQKPGQPPKLLIYWASTRESGVPDRFSGSGSGTDFTLTISSLQAEDVAVYYCQNNYIYPLTFGGGTKVEIKR	0.299
Hz25C7 (antibody, human IgG1, kappa, V domains shown) VH: EVQLVESGGGLVQPGGSLRLSCAASGFTFSDYGMAWVRQAPGKGLEWVAFINNLAYSIYYVDTVTGRFTISRDNAKNSLYLQMNSLRAEDTAVYYCARFTTGNVMDYWGQGTLVTVSS VL: DIVMTQSPDSLAVSLGERATINCKSSQSLLQGGNQKNYLTWYQQKPGQPPKLLIYWSSTRESGVPDRFSGSGSGTDFTLTISSLQAEDVAVYYCQNSYSYPLTFGGGTKVEIKR	9.84
Hz59C1 (antibody, human IgG1, kappa, V domains shown) VH: QVQLQESGPGLVKPSETLSLTCTVSGYSITSGYGWNWIRQPPGKGLEWIGYIHFSGSTNYNPSLKSRVTISVDTSKNQFSLKLSSVTAADTAVYYCARSGKGNAMDYWGQGTLVTVSS VL: DIVMTQSPDSLAVSLGERATINCKSSQSLLNSGNQKNYLTWYQQKPGQPPKLLIYWASTRESGVPDRFSGSGSGTDFTLTISSLQAEDVAVYYCQNDYYFPFTFGGGTKVEIKR	1.75
Hz46F6 (antibody, human IgG1, kappa, V domains shown) VH: QVQLQESGPGLVKPSETLSLTCTVSGFSLTDYGVSWIRQPPGKGLEWIGVMWGGGNTYYNSALKSRVTISVDTSKNQFSLKLSSVTAADTAVYYCARQRYGGNAMDYWGQGTLVTVSS VL: DIVMTQSPDSLAVSLGERATINCKSSQSLLNSGNQRNYLTWYQQKPGQPPKLLIYWASTRESGVPDRFSGSGSGTDFTLTISSLQAEDVAVYYCQNSYFYPFTFGGGTKVEIKR	1.03
Hz38F8 (antibody, human IgG1, kappa, V domains shown) VH: EVQLVESGGGLVQPGGSLRLSCAASGFSFSDYGMHWVRQAPGKGLEWVSYINSGSRTLYYADTVKGRFTISRDNAKNSLYLQMNSLRDEDTAVYYCARNAYYGNAMDYWGQGTLVTVSS VL: DIVMTQSPDSLAVSLGERATINCKSSQSLLNSGNQRNYLTWYQQKPGQPPKLLIYWSSTRGSGVPDRFSGSGSGTDFTLTISSLQAEDVAVYYCQNVYYYPFTFGQGTRLEIKR	0.314

Can you share its Kd? I mean this binder: Hz14A5 (antibody, human IgG1, kappa, V domains shown) VH: QVQLQESGPGLVKPSETLSLTCTVSGFSLNSYGVGWIRQPPGKGLEWIGVIWGDVSTNYHSVLISRVTISKDTSKNQVSLKLSSVTAADTAVYYCARITRGNAMDYWGQGTLVTVSS VL: DIVMTQSPDSLAVSLGERATINCKSSQSLLNSGNQRNYLTWYQQKPGQPPKLLIYWASTRKSGVPDRFSGSGSGTDFTLTISSLQAEDVAVYYCQNNYLFPLTFGGGTKVEIKR
0.49

# input binder: Hz3G3 (antibody, human IgG1, kappa, V domains shown) VH: QVQLVQSGAEVKKPGASVKVSCKASGYSFTTYWMHWVRQAPGQGLEWMGLIDPSDSETRLNQKFKDRVTMTVDTSTSTVYMELSSLRSEDTAVYYCASNRWLLGWGQGTLVTVSS VL: DIVMTQSPDSLAVSLGERATINCKSSQSLLNSGNQKNYLTWYQQKPGQPPKLLIYWASTRESGVPDRFSGSGSGTDFTLTISSLQAEDVAVYYCQNDYSYPLTFGQGTKLEIKR ; wanted: its Kd
14.2

FYI, the data here is from patent US20230235047A1.
